Target: RNF31 PUB domain (Homo sapiens)
Construct: MBP-TEV (N, cleaved yes); made in house; host or cells: E. coli BL21 (DE3) pLysS
Sequence (Q96EP0 1-179): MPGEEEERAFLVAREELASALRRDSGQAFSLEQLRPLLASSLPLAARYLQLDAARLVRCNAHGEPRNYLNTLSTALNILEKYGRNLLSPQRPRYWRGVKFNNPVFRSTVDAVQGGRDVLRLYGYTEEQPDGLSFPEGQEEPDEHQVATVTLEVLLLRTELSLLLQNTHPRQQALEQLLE
Assay: Phage Library Screening with NGS, RNF31 PUB domain
Assay type: binding
Conditions: clusters C41-C45; BLANK screen, column 5 of 5

Chain sequence | Phage library screen NGS readout, BLANK
DPAIQECLLAAATCWTY | 0
DPAQEECFEAAVFCSYY | 1
DPAFQFCVEAAVACSYY | 4
DPAQYQCDIAAQVCSTY | 0
DPAIAQCMLAAQVCSTY | 0
DPAFDWCLYAADDCAET | 1
DPAIRECMLAALVCSTY | 0
DPAVVDCWDAAVQCTYY | 0
DPAWTDCDWAALYCEFQ | 0
DPAEDWCMYAAWDCQME | 0
DPAYDWCLYAAYQCDQN | 0
DPATEACFDAAIECTYY | 0
DPAYYTCDWAAIYCDYH | 0
DPATWWCLYAAEDCVNI | 4
DPAWWNCLYAANTCVED | 1
DPAQEACWDAAIMCTYR | 0
DPAFHDCQFAAAVCSTY | 0

====

target: CDK2 (Homo sapiens); test: Phage Library Screening with NGS, CDK2; assay type: binding; design: Full length CDK2 (residues 1-298) with an N-terminal GST-3C-6×his-TEV tag; GST-3C-6×his-TEV (N, cleaved yes); made in house; host or cells: Sf9 (Bac-to-Bac baculovirus); conditions: CDK2, target concentration 1000, first column
Numbered stars: 1 amine (or outer) side, 2 acyl side, 3 side chain; on linkers, the order of the positions; unused ones are H or OH. Bridge positions count the residues as written; N and C are the ends. Ends that are not written are not given here. Phenylene(1,4-NHCOCH2)2 = O=C(C[*:1])Nc1ccc(NC(=O)C[*:2])cc1
Endpoint: phage screen counts, Target Concentration 1000

Chain sequence | System | Readout number
DPAWWSCVIAAMECQDI (linker 7-14 via Phenylene(1,4-NHCOCH2)2 (inferred)) | CDK2 (Homo sapiens) | 87
DPAWYACIVAAVDCEHS (linker 7-14 via Phenylene(1,4-NHCOCH2)2 (inferred)) | CDK2 (Homo sapiens) | 206
MACVDAFFSC (linker 3-10 via Phenylene(1,4-NHCOCH2)2 (inferred)) | CDK2 (Homo sapiens) | 320
CLSAFFSCTY (linker 1-8 via Phenylene(1,4-NHCOCH2)2 (inferred); not fully specified (C-terminus)) | CDK2 (Homo sapiens) | 111

====

Listed here are sequences together with their documented Phage library screen NGS readout, Target Concentration 1000.
Target: RNF31 PUB domain (Homo sapiens, UniProt Q96EP0)
Construct: MBP-TEV (N, cleaved yes); made in house; host or cells: E. coli BL21 (DE3) pLysS
Sequence (Q96EP0 1-179): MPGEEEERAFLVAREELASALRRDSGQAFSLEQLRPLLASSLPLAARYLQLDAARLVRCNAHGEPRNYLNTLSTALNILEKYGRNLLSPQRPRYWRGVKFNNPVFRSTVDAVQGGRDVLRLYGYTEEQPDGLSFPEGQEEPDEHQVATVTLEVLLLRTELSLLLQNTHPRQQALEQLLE
Experiment: Phage Library Screening with NGS, RNF31 PUB domain
Type: binding
Conditions: RNF31 PUB domain clusters C41-C45; target concentration 1000, second column
Ends that are not written are not given here.
Endpoint: Phage library screen NGS readout, Target Concentration 1000

Chain sequence | Readout number
DPAMIDCFLAAQVCATY (not fully specified; cysteine pairing not given here) | 6
DPAEQFCLYAAYDCYSE | 9
DPAQEECFEAAVFCSYY | 20.49
DPAYWDCMYAAFYCDDI | 8
DPAYEDCADAAMYCDMD | 10
DPAYWQCIYAAWDCDQM | 6
DPAFWECMYAASDCDAS | 4
DPAWMQCMYAAWDCNIE | 5
